Please consider the recorded log10 of Ki for purified human autoBACE-2 (Homo sapiens (Human), UniProt Q9Y5Z0) in what follows.
Short version: log10 scale, Ki, nM.

# example entries with known answers
In [3]: df
Out[3]:
                                   compound                         system_under_test  quantity_kind  assay_value
0  C[C@@]1(c2cc(Nc3ncnc4cc(Br)cnc34)ncc2F)CS(=O)(=O)[C@@](C)(C2CC2)C(N)=N1  purified human autoBACE-2 (Homo sapiens (Human), UniProt Q9Y5Z0)    log10 of Ki         0.58
1  CC#CCOc1cnc2c(Nc3cnc(F)c([C@]4(C)CS(=O)(=O)[C@@](CF)(C5CC5)C(N)=N4)c3)nccc2n1  purified human autoBACE-2 (Homo sapiens (Human), UniProt Q9Y5Z0)    log10 of Ki         0.04
2  CC#CCOc1cnc2c(Nc3cnc(F)c([C@]4(C)CS(=O)(=O)[C@@](CF)(C5CC5)C(N)=N4)c3)nccc2c1  purified human autoBACE-2 (Homo sapiens (Human), UniProt Q9Y5Z0)    log10 of Ki         0.88
3  C[C@@]1(c2cc(Nc3nccc4cc(Br)cnc34)ccc2F)CS(=O)(=O)[C@@](C)(C2CC2)C(N)=N1  purified human autoBACE-2 (Homo sapiens (Human), UniProt Q9Y5Z0)    log10 of Ki        -0.39
4  C[C@@]1(c2cc(Nc3ncnc4cc(C#N)cnc34)ccc2F)CS(=O)(=O)[C@@](C)(C2CC2)C(N)=N1  purified human autoBACE-2 (Homo sapiens (Human), UniProt Q9Y5Z0)    log10 of Ki         0.15

Let's switch to this compound now.
Please respond with reported log10 of Ki (system purified human autoBACE-2 (Homo sapiens (Human), UniProt Q9Y5Z0)) for CC1(C)C(=N)N[C@](C)(c2nc(Nc3cccc(Cl)c3F)ccc2F)CS1(=O)=O [WO′426 Ex. 30, reference compound] .
2.94

###

Tested on: HepG2 cells
Assay: In Vitro Phospholipidosis Assay
Assay type: cell-based
Conditions: 20 μM, 24 hours, normalized to DMSO
Quantity Kind: In Vitro Phospholipidosis Assay: Mean NBD-PE Inclusion Count (Fold over control)

# example entries with known answers
In [3]: df
Out[3]:
                                   molecule            assay_value
0  COc1cnc2c(Nc3cc([C@]4(C)CS(=O)(=O)[C@@](C)(C5CC5)C(N)=N4)c(F)cn3)nccc2c1  3.1 Fold over control
1  C[C@@]1(c2nc(Nc3nccc4cc(C#N)cnc34)ncc2F)CS(=O)(=O)[C@@](C)(C2CC2)C(N)=N1  1.3 Fold over control
2  COc1cnc2c(Nc3ccc(F)c([C@]4(C)CS(=O)(=O)[C@@](C)(C5CC5)C(N)=N4)c3)ncnc2n1  0.9 Fold over control

Please look at this molecule and report its In Vitro Phospholipidosis Assay: Mean NBD-PE Inclusion Count (Fold over control): `COc1cnc2c(Nc3ccc(F)c([C@]4(C)CS(=O)(=O)[C@@](CF)(C5CC5)C(N)=N4)c3)nccc2c1`
1.9 Fold over control

Please look at this molecule and report its In Vitro Phospholipidosis Assay: Mean NBD-PE Inclusion Count (Fold over control): COc1cnc2c(Nc3ccc(F)c([C@]4(C)CS(=O)(=O)C(C)(C)C(N)=N4)c3)nccc2n1 [Ex 47 of WO2014059185, reference compound]
13 Fold over control

###

Molecular target: soluble human BACE-1 catalytic domain (Homo sapiens (Human), UniProt P56817)
Sequence (P56817 75-416): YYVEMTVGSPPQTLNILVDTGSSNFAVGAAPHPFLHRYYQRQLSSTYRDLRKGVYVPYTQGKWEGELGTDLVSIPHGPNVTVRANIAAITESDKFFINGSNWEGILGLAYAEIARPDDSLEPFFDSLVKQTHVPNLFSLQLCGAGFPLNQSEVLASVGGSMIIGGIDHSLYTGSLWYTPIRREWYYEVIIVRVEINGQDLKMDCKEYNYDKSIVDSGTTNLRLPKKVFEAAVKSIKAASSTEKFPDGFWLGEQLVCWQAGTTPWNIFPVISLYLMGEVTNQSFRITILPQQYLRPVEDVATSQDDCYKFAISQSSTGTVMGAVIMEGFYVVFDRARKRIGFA
Quantity Kind: pKi
Entry type: numeric. Quantity: pKi, the -log10 of concentration in molar units.

# example entries with known answers
>>> print(df.to_string())
                                   compound  assay_value
0  COc1cnc2c(Nc3ccc(F)c([C@]4(C)CS(=O)(=O)[C@@](CF)(C5CC5)C(N)=N4)c3)nccc2n1 [Example 8]         8.35
1  COc1cnc2c(Nc3cc([C@]4(C)CS(=O)(=O)[C@@](C)(C5CC5)C(N)=N4)c(F)cn3)ncnc2c1 [Example 19]         7.17
2  C[C@@]1(c2cc(Nc3nccc4cc(C#N)cnc34)ccc2F)CS(=O)(=O)[C@@](C)(C2CC2)C(N)=N1 [Example 18]         8.80
3  CC1(C)C(=N)N[C@](C)(c2cc(Nc3noc4cc(F)cnc34)ccc2F)CS1(=O)=O [WO′426 Ex. 30b, reference compound]         7.72
4  C[C@@]1(c2cc(Nc3ccnc4cc(Cl)cnc34)ncc2F)CS(=O)(=O)[C@@](C)(C2CC2)C(N)=N1 [Example 33]         8.21

Let's switch to this compound now.
Please look at this compound and report its pKi: CC1(C)C(=N)N[C@](C)(c2nc(Nc3cccc(Cl)c3F)ccc2F)CS1(=O)=O [WO′426 Ex. 30, reference compound]
5.50

###

Target: purified human autoBACE-2 (Homo sapiens (Human), UniProt Q9Y5Z0)
Sequence (Q9Y5Z0 63-466): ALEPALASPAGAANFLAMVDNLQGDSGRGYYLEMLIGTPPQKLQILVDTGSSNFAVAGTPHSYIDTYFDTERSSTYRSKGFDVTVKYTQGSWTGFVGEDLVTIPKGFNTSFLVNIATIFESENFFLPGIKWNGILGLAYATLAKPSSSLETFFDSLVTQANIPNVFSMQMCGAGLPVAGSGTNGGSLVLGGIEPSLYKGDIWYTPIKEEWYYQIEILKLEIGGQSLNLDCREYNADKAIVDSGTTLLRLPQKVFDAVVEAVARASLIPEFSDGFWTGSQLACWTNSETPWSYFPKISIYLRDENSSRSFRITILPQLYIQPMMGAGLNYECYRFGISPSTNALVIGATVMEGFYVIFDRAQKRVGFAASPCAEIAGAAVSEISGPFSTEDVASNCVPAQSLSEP
pKi by entry:
Entry type: numeric. Quantity: pKi, the -log10 of concentration in molar units.

>>> df
                                   molecule  quantity_kind  assay_value
0  COc1cnc2c(Nc3cc([C@]4(C)CS(=O)(=O)[C@@](C)(C5CC5)C(N)=N4)c(F)cn3)ncnc2n1 [Example 23]            pKi         6.89
1  COc1cnc2c(Nc3ccc(F)c([C@]4(C)CS(=O)(=O)[C@@](C)(C5CC5)C(N)=N4)c3)ncnc2c1 [Example 20]            pKi         8.62
2  COc1cnc2c(Nc3ccc(F)c([C@]4(C)CS(=O)(=O)[C@@](CF)(C5CC5)C(N)=N4)c3)nccc2n1 [Example 8]            pKi         8.38
3  C[C@@]1(c2cc(Nc3nccc4cc(C#N)cnc34)ccc2F)CS(=O)(=O)[C@@](C)(C2CC2)C(N)=N1 [Example 18]            pKi         9.19
4  C[C@@]1(c2cc(Nc3nccc4cc(C#N)cnc34)ncc2F)CS(=O)(=O)[C@@](C)(C2CC2)C(N)=N1 [Example 4]            pKi         8.82

Let's switch to this molecule now.
Please look at this molecule and report its pKi: COc1cnc2c(Nc3cnc(F)c([C@]4(C)CS(=O)(=O)[C@@](CF)(C5CC5)C(N)=N4)c3)nccc2c1 [Example 12]
8.48

###

Molecular target: BACE-1 (Homo sapiens (Human))
Sequence (P56817 46-501): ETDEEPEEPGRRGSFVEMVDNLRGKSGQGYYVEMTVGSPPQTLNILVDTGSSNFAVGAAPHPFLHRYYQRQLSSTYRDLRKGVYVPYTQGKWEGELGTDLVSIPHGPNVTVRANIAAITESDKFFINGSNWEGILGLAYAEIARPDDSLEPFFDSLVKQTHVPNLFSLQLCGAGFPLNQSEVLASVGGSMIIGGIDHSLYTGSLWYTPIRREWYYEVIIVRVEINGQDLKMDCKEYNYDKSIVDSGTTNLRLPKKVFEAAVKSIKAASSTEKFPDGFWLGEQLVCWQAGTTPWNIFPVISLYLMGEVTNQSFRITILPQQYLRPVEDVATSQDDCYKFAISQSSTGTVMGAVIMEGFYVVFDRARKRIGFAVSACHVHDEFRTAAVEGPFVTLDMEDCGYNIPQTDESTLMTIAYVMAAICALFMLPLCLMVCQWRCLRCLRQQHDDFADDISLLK
Assay: BACE-1 Cellular Assay (Aβ in HEK293-APPswe/lon cells)
Type: cell-based
Conditions: 4 hours
log10 of IC50 by entry:
Short version: log10 scale, IC50, nM.

# example entries with known answers
>>> print(df.to_string())
                                   compound  quantity_kind  assay_value
0  C[C@@]1(c2cc(Nc3ncnc4cc(Br)cnc34)ccc2F)CS(=O)(=O)[C@@](C)(C2CC2)C(N)=N1 [Example 15]  log10 of IC50         0.53
1  COc1cnc2c(Nc3ccc(F)c([C@]4(C)CS(=O)(=O)[C@@](CF)(C5CC5)C(N)=N4)c3)nccc2c1 [Example 7]  log10 of IC50         2.12
2  C[C@@]1(c2nc(Nc3nccc4cc(C#N)cnc34)ncc2F)CS(=O)(=O)[C@@](C)(C2CC2)C(N)=N1 [Example 5]  log10 of IC50         1.00
3  CC#CCOc1cnc2c(Nc3cnc(F)c([C@]4(C)CS(=O)(=O)[C@@](C)(C5CC5)C(N)=N4)c3)nccc2c1 [Example 30]  log10 of IC50         1.45

Please look at this compound and report its log10 of IC50: C[C@@]1(c2cc(Nc3nccc4cc(Cl)cnc34)ncc2F)CS(=O)(=O)[C@@](C)(C2CC2)C(N)=N1 [Example 27]
2.26

Please look at this compound and report its log10 of IC50: COc1cnc2c(Nc3ccc(F)c([C@]4(C)CS(=O)(=O)[C@@](C)(C5CC5)C(N)=N4)c3)ccnc2n1 [Example 37]
1.36

Please look at this compound and report its log10 of IC50: C[C@@]1(c2cc(Nc3nccc4cc(C#N)cnc34)ncc2F)CS(=O)(=O)[C@@](C)(C2CC2)C(N)=N1 [Example 4]
1.28

Please look at this compound and report its log10 of IC50: COc1cnc2c(Nc3cc([C@]4(C)CS(=O)(=O)[C@@](C)(C5CC5)C(N)=N4)c(F)cn3)ccnc2n1 [Example 35]
1.00

Please look at this compound and report its log10 of IC50: C[C@@]1(c2cc(Nc3ncnc4cc(Br)cnc34)ncc2F)CS(=O)(=O)[C@@](C)(C2CC2)C(N)=N1 [Example 38]
2.04

Please look at this compound and report its log10 of IC50: C[C@@]1(c2cc(Nc3nccc4cc(C#N)cnc34)ccc2F)CS(=O)(=O)[C@@](C)(C2CC2)C(N)=N1 [Example 18]
0.68

Please look at this compound and report its log10 of IC50: COc1cnc2c(Nc3ccc(F)c([C@]4(C)CS(=O)(=O)[C@@](CF)(C5CC5)C(N)=N4)c3)nccc2n1 [Example 8]
1.96

Please look at this compound and report its log10 of IC50: COc1cnc2c(Nc3cnc(F)c([C@]4(C)CS(=O)(=O)[C@@](C)(C5CC5)C(N)=N4)c3)nccc2c1 [Example 32]
1.38

Please look at this compound and report its log10 of IC50: C[C@@]1(c2cc(Nc3nccc4cc(F)cnc34)ncc2F)CS(=O)(=O)[C@@](C)(C2CC2)C(N)=N1 [Example 26]
2.40

Please look at this compound and report its log10 of IC50: COc1cnc2c(Nc3cc([C@]4(C)CS(=O)(=O)[C@@](C)(C5CC5)C(N)=N4)c(F)cn3)nccc2c1 [Example 6]
0.48

Please look at this compound and report its log10 of IC50: C[C@@]1(c2nc(Nc3nccc4cc(C#N)cnc34)ccc2F)CS(=O)(=O)[C@@](CF)(C2CC2)C(N)=N1 [Example 2]
1.72

Please look at this compound and report its log10 of IC50: COc1cnc2c(Nc3cc([C@]4(C)CS(=O)(=O)[C@@](C)(C5CC5)C(N)=N4)c(F)cn3)nccc2n1 [Example 9]
2.05

Please look at this compound and report its log10 of IC50: CC#CCOc1cnc2c(Nc3cnc(F)c([C@]4(C)CS(=O)(=O)[C@@](CF)(C5CC5)C(N)=N4)c3)nccc2c1 [Example 11]
0.61

Please look at this compound and report its log10 of IC50: C[C@@]1(c2cc(Nc3ccnc4cc(Cl)cnc34)ncc2F)CS(=O)(=O)[C@@](C)(C2CC2)C(N)=N1 [Example 33]
1.43

Please look at this compound and report its log10 of IC50: CC#CCOc1cnc2c(Nc3cnc(F)c([C@]4(C)CS(=O)(=O)[C@@](CF)(C5CC5)C(N)=N4)c3)nccc2n1 [Example 13]
0.82

Please look at this compound and report its log10 of IC50: C[C@@]1(c2cc(Nc3nccc4cc(Br)cnc34)ccc2F)CS(=O)(=O)[C@@](C)(C2CC2)C(N)=N1 [Example 17]
1.20

Please look at this compound and report its log10 of IC50: C[C@@]1(c2cc(Nc3ncnc4cc(C#N)cnc34)ncc2F)CS(=O)(=O)[C@@](C)(C2CC2)C(N)=N1 [Example 39]
2.11

Please look at this compound and report its log10 of IC50: C[C@@]1(c2cc(Nc3ncnc4cc(C#N)cnc34)ccc2F)CS(=O)(=O)[C@@](C)(C2CC2)C(N)=N1 [Example 16]
0.41

Please look at this compound and report its log10 of IC50: COc1cnc2c(Nc3ccc(F)c([C@]4(C)CS(=O)(=O)[C@@](C)(C5CC5)C(N)=N4)c3)ncnc2c1 [Example 20]
0.72
